All values here come from the supplement of paper PMC11208160.

# TEST DESCRIPTION: recombinant barcode read abundance after kanamycin selection (control-corrected) (log10(CPM+1)); higher = more efficient recombination; sequences stand for … in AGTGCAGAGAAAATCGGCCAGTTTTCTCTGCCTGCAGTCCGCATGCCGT…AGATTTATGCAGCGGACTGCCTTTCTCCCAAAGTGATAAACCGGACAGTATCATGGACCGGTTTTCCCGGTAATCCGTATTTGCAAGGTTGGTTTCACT; site = the 11-nt target
EXPERIMENTAL ENDPOINT: recombinant barcode read abundance (log10)
Note: the reply should be a number with no unit written.

Answered examples (4):
ATGGGTCCTTGGGTTCTAACCTGTTGCCT (site ATGGGTCCTAG): 2.55
GTCACCTCTTGGGTTCTAACCTGTTGCTA (site GTAACCTCTGA): 0.217
TAAGTCCCTTGGGTTCTAACCTGTTGCCT (site AAAGTCCCTAG): 0.233
GAGCGATCTTGGGTTCTAACCTGTTGCGT (site GAGTGAGCTAC): 0.0311

Q: Identify the reported recombinant barcode read abundance (log10) for the following entry. CACAAACCTTGGGTTCTAACCTGTTGCAG (site CACAAACCTCT)
A: 1.17

----------
recombinant barcode read abundance (log10) values for the sequences below.
# TEST DESCRIPTION: recombinant barcode read abundance after kanamycin selection (control-corrected) (log10(CPM+1)); higher = more efficient recombination; sequences stand for … in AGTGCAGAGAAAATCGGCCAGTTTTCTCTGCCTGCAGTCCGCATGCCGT…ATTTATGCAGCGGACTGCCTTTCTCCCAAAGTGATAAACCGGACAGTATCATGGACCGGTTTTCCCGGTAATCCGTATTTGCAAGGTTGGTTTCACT; site = the 11-nt target

Answered examples (2):
TGATACCCTTGGGTTCTAACCTGTTGCGTTT [TGATACCCTAC_LTGcore_CT_RTGcore_AA] (site TGATACCCTAC) (LTG core: CT, RTG core: AA): 0.666
AGGCCTCGATGGGTTCTAACCTGTTGCCTAG [AGGCCTCCTAG_LTGcore_GA_RTGcore_CT] (site AGGCCTCCTAG) (LTG core: GA, RTG core: CT): 0.24

Q: Identify the reported recombinant barcode read abundance (log10) for the following entry. GCGCGACCTTGGGTTCTAACCTGTTGCTTTT [GCGCGACCTAA_LTGcore_CT_RTGcore_AA] (site GCGCGACCTAA) (LTG core: CT, RTG core: AA)
A: 0.0792

----------
# TEST DESCRIPTION: recombinant UMI read abundance after kanamycin selection (control-corrected) (log10(CPM+1)); higher = more efficient recombination; extreme values may be limits of the assay; sequences stand for … in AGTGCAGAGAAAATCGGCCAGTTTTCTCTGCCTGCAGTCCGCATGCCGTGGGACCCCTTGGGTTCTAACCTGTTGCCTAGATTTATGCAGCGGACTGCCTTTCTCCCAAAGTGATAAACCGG…AGGTTGGTTTCACT; site = the 11-nt donor
recombinant UMI read abundance (log10) below 0.5 gives Not met; recombinant UMI read abundance (log10) at or above it gives Met.

CATCTGTCATGGACCGGTTTTCCCGGTAATCCGTATTTGAC (site CATCTGTCTGT): Not met
CCGTTAGCATGGACCGGTTTTCCCGGTAATCCGTATTTGAG (site CCGTTAGCTCT): Met
CCAATATCATGGACCGGTTTTCCCGGTAATCCGTATTTGTC (site CCTATATCTGA): Met
GCCACGCCATGGACCGGTTTTCCCGGTAATCCGTATTTGTA (site GCCATGCCTTA): Not met
TATTTGGCATGGACCGGTTTTCCCGGTAATCCGTATTTGTG (site TATTTGTCTCA): Not met
ACAGTTCCATGGACCGGTTTTCCCGGTAATCCGTATTTGCC (site ACAGTTCCTGG): Not met
ATTGTGACATGGACCGGTTTTCCCGGTAATCCGTATTTGCT (site ATTGTGACTAG): Met
CCCCACGCATGGACCGGTTTTCCCGGTAATCCGTATTTGTA (site CCCCACACTTA): Met

Q: Check if recombinant UMI read abundance (log10) >= 0.5 (inclusive). Item: CAGTTCTCATGGACCGGTTTTCCCGGTAATCCGTATTTGGC (site CAGTTCTCTGC)
A: Met
